tested on: HIV-1 (H9/IIIB strain); assay: microbe, parasite or virus in culture; assay type: cell-based; settings: 50% normal human serum; MT4-GFP cells infected with HIV-1 H9/IIIB; inhibition of reproductive ratio R0; read-out: Viking, IC50 (50% NHS)
Entries and their IC50
Give just the number in nM; leave the unit off.

Give the reported value of IC50 for this record: CC(C)OC(=O)[C@@H](C)CNP(=O)(CO[C@H](C)Cn1cnc2c(N)ncnc21)N[C@H](C)C(=O)OC1CCCCC1 (single isomer, unassigned) [Example 21B]
836

Give the reported value of IC50 for this record: CC(C)OC(=O)C[C@@H](C)NP(=O)(CO[C@H](C)Cn1cnc2c(N)ncnc21)N[C@@H](C)C(=O)OC(C)C (single isomer, unassigned) [Example 9B]
800

Give the reported value of IC50 for this record: CC(C)OC(=O)[C@@H](C)CNP(=O)(CO[C@H](C)Cn1cnc2c(N)ncnc21)N[C@@H](C)C(=O)OC1CCCCC1 (single isomer, unassigned) [Example 13A]
56.4

Give the reported value of IC50 for this record: CC(C)OC(=O)CCNP(=O)(CO[C@H](C)Cn1cnc2c(N)ncnc21)N[C@H](C)C(=O)OC1CCC1 (single isomer, unassigned) [Example 23B]
488

Give the reported value of IC50 for this record: CCCCCCCOC(=O)[C@H](C)NP(=O)(CO[C@H](C)Cn1cnc2c(N)ncnc21)NC[C@H](C)C(=O)OC(C)C (single isomer, unassigned) [Example 17A]
43

Give the reported value of IC50 for this record: CC(C)OC(=O)[C@@H](C)CNP(=O)(CO[C@H](C)Cn1cnc2c(N)ncnc21)N[C@H](C)C(=O)OC1CCC1 (single isomer, unassigned) [Example 20B]
432

Give the reported value of IC50 for this record: CC(C)OC(=O)[C@H](C)CNP(=O)(CO[C@H](C)Cn1cnc2c(N)ncnc21)N[C@@H](C)C(=O)OC(C)C (single isomer, unassigned) [Example 10A]
97.2
